Test: Inhibition of Schistosoma mansoni asparaginyl endopeptidase
Settings: read-out: IC50
readout label: IC50 (µM)
Numbers only; they are read as µM.

molecule="CC(NC(=O)N1CCN(C(=O)OC(C)(C)C)CC1)C(=O)N[C@@H](C)C(=O)NN(CC(N)=O)C(=O)[C@H]1O[C@@H]1C(=O)N(Cc1ccccc1)Cc1ccccc1 (single isomer, unassigned)" recorded_result=0.08

Okay, now this molecule:
Exercise: Form field: reported IC50 of `C[C@H](NC(=O)[C@@H](C)NC(=O)N1CCOCC1)C(=O)NN(CC(N)=O)C(=O)/C=C/C(=O)N(Cc1cccc2ccccc12)Cc1cccc2ccccc12`
Solution: 0.045

---

Test: Inhibition of Schistosoma mansoni asparaginyl endopeptidase
Settings: read-out: IC50
Classify: rule met when IC50 is strictly less than 70 nM; rule not met when IC50 is not.

Completed entries (count: 4):
compound=CCOC(=O)/C=C/C(=O)N(CC(N)=O)NC(=O)[C@H](C)NC(=O)[C@@H](C)NC(=O)N1CCN(C(=O)OC(C)(C)C)CC1 label_value="rule not met"
compound="CCOC(=O)[C@H]1O[C@@H]1C(=O)N(CC(N)=O)NC(=O)[C@H](C)NC(=O)C(C)NC(=O)N1CCCCC1 (single isomer, unassigned)" label_value="rule not met"
compound=C[C@H](NC(=O)N1CCOCC1)C(=O)NN(CC(N)=O)C(=O)/C=C/C(=O)N1CCc2ccccc2C1 label_value="rule not met"
compound=C[C@H](NC(=O)[C@@H](C)NC(=O)N1CCN(C(=O)OCc2ccccc2)CC1)C(=O)NN(CC(N)=O)C(=O)/C=C/C(=O)N(Cc1cccc2ccccc12)Cc1cccc2ccccc12 label_value="rule met"

For the next question, use this compound.
Exercise: Quick check: does CC(NC(=O)N1CCOCC1)C(=O)N[C@@H](C)C(=O)NN(CC(N)=O)C(=O)[C@H]1O[C@@H]1C(=O)NCc1cccc2ccccc12 (single isomer, unassigned) have IC50 under 70 nM?
Solution: rule met

---

Assay: Inhibition of Schistosoma mansoni asparaginyl endopeptidase
Settings: read-out: IC50
readout label: IC50 (nM)
All answers are understood in nM, so give the number only.

These solved cases illustrate the format of a correct answer.
smiles_representation=C[C@H](NC(=O)[C@@H](C)NC(=O)N1CCN(C(=O)OC(C)(C)C)CC1)C(=O)NN(CC(N)=O)C(=O)/C=C/C(=O)N(Cc1cccc2ccccc12)Cc1cccc2ccccc12 recorded_result=68
smiles_representation=C[C@H](NC(=O)[C@@H](C)NC(=O)N1CCN(C(=O)OC(C)(C)C)CC1)C(=O)NN(CC(N)=O)C(=O)/C=C/C(=O)OCc1ccccc1 recorded_result=45

Now take the following compound into account.
Exercise: Given `CCOC(=O)/C=C/C(=O)N(CC(N)=O)NC(=O)[C@H](C)NC(=O)[C@@H](C)NC(=O)N1CCCCC1` , state its recorded IC50.
Solution: 80

---

Molecular target: Legumain-like protease (Ixodes ricinus, UniProt Q6PRC7)
Sequence (Q6PRC7 whole entry): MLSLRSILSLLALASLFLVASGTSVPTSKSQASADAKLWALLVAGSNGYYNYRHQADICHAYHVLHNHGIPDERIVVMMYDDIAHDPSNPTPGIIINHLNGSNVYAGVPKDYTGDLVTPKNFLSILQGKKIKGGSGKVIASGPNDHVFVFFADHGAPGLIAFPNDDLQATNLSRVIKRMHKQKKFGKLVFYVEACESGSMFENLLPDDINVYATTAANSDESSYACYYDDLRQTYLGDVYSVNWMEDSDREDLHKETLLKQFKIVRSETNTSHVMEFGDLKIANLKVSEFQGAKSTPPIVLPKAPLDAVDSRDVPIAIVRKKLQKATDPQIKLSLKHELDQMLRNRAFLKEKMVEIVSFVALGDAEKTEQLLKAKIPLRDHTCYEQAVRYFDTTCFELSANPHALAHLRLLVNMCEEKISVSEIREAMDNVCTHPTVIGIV
Test: Inhibition of Ixodes ricinus asparaginyl endopeptidases
Settings: read-out: IC50
readout label: pIC50
Notebook: values listed as pIC50 are -log10 of the concentration (mol/L).

Sample answers from the record:
compound=C[C@H](NC(=O)[C@@H](C)NC(=O)N1CCN(C(=O)OC(C)(C)C)CC1)C(=O)NN(CC(N)=O)C(=O)/C=C/C(=O)N(C)Cc1cccc2ccccc12 system_name="Legumain-like protease (Ixodes ricinus, UniProt Q6PRC7)" recorded_result=7.70
compound=CC(C)[C@H](NC(=O)[C@@H](C)NC(=O)OCc1ccccc1)C(=O)NN(CC(N)=O)C(=O)/C=C/C(=O)N1CCCc2ccccc21 system_name="Legumain-like protease (Ixodes ricinus, UniProt Q6PRC7)" recorded_result=7.89
compound=CCOC(=O)/C=C/C(=O)N(CC(N)=O)NC(=O)[C@H](C)NC(=O)[C@@H](C)NC(=O)N1CCNCC1 system_name="Legumain-like protease (Ixodes ricinus, UniProt Q6PRC7)" recorded_result=8.07
compound=CCOC(=O)/C=C/C(=O)N(CC(N)=O)NC(=O)[C@H](C)NC(=O)[C@@H](C)NC(=O)N1CCOCC1 system_name="Legumain-like protease (Ixodes ricinus, UniProt Q6PRC7)" recorded_result=9.64
compound=CC(C)[C@H](NC(=O)[C@@H](C)NC(=O)OCc1ccccc1)C(=O)NN(CC(N)=O)C(=O)/C=C/C(=O)NCc1cccc2ccccc12 system_name="Legumain-like protease (Ixodes ricinus, UniProt Q6PRC7)" recorded_result=6.46
compound=C[C@H](NC(=O)[C@@H](C)NC(=O)N1CCN(C(=O)OC(C)(C)C)CC1)C(=O)NN(CC(N)=O)C(=O)/C=C/C(=O)N(Cc1ccccc1)Cc1ccccc1 system_name="Legumain-like protease (Ixodes ricinus, UniProt Q6PRC7)" recorded_result=7.52

Exercise: If you can, please state the reported pIC50 value of CC(NC(=O)N1CCOCC1)C(=O)N[C@@H](C)C(=O)NN(CC(N)=O)C(=O)[C@H]1O[C@@H]1C(=O)N(Cc1ccccc1)Cc1ccccc1 (single isomer, unassigned) .
Solution: 8.77

Exercise: # iterate: CC(NC(=O)N1CCOCC1)C(=O)N[C@@H](C)C(=O)NN(CC(N)=O)C(=O)[C@H]1O[C@@H]1C(=O)NCc1cccc2ccccc12 (single isomer, unassigned)
Solution: 8.22

Exercise: Could you do the same for `CCOC(=O)/C=C/C(=O)N(CC(N)=O)NC(=O)[C@@H](NC(=O)[C@@H](C)NC(=O)OCc1ccccc1)[C@@H](C)CC` , please?
Solution: 9.28

Exercise: Same for `C[C@H](NC(=O)[C@@H](C)NC(=O)N1CCCCC1)C(=O)NN(CC(N)=O)C(=O)/C=C/C(=O)NCCc1ccccc1`
Solution: 6.40

Exercise: Could you do the same for `C[C@H](NC(=O)[C@@H](C)NC(=O)N1CCN(C(=O)OCc2ccccc2)CC1)C(=O)NN(CC(N)=O)C(=O)/C=C/C(=O)N(C)Cc1cccc2ccccc12` , please?
Solution: 9.46

Exercise: Same thing, different compound: `C[C@H](NC(=O)N1CCN(C(=O)OCc2ccccc2)CC1)C(=O)NN(CC(N)=O)C(=O)/C=C/C(=O)N1CCCc2ccccc21`
Solution: 6.07

Exercise: Param item: `C[C@H](NC(=O)[C@@H](C)NC(=O)N1CCOCC1)C(=O)NN(CC(N)=O)C(=O)/C=C/C(=O)N1CCc2ccccc2C1`
Solution: 7.19

Exercise: Queued: CC(NC(=O)N1CCN(C(=O)OC(C)(C)C)CC1)C(=O)N[C@@H](C)C(=O)NN(CC(N)=O)C(=O)[C@H]1O[C@@H]1C(=O)N(Cc1ccccc1)Cc1ccccc1 (single isomer, unassigned)
Solution: 6.57

Exercise: Same question for `C[C@H](NC(=O)[C@@H](C)NC(=O)N1CCN(C(=O)OCc2ccccc2)CC1)C(=O)NN(CC(N)=O)C(=O)/C=C/C(=O)N(Cc1cccc2ccccc12)Cc1cccc2ccccc12` please.
Solution: 9.43

Exercise: What about `CCOC(=O)/C=C/C(=O)N(CC(N)=O)NC(=O)[C@H](C)NC(=O)[C@@H](C)NC(=O)N1CCN(C(=O)OC(C)(C)C)CC1` ?
Solution: 8.07

Exercise: Another: `C[C@H](NC(=O)[C@@H](C)NC(=O)N1CCN(C(=O)OC(C)(C)C)CC1)C(=O)NN(CC(N)=O)C(=O)/C=C/C(=O)N(Cc1cccc2ccccc12)Cc1cccc2ccccc12`
Solution: 8.30

Exercise: Then what about the compound C[C@H](NC(=O)[C@H](C)NC(=O)N1CCCCC1)C(=O)NN(CC(N)=O)C(=O)/C=C/C(=O)N(Cc1cccc2ccccc12)Cc1cccc2ccccc12 (relative stereo) ?
Solution: 8.10
